Biological target: T1, mPrrp-2xRBD (mouse, UniProt Q9JII5 1-201)
T1 sequence: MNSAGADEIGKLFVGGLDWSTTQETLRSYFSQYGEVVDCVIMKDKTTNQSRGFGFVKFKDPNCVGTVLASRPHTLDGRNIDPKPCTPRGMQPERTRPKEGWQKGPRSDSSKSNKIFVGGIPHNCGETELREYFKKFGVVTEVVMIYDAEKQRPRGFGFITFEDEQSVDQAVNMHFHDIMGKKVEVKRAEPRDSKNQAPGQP
Assay: EMSA
pKd: −log10 of the molar value.
experimental-readout: pKd

{"columns": ["binder", "assay-value"],
 "data": [
  ["S-13 26-73 U52C (structured_RNA) RNA: GGCAUAGCCAAAUAGUUUGUGGCCUUAGCUUAGUAUAGCUGCGGGCUAUGGGAUC", "~7.26"],
  ["S-13 26-73 U53C (structured_RNA) RNA: GGCAUAGCCAAAUAGUUUGUGGCCUUAGUCUAGUAUAGCUGCGGGCUAUGGGAUC", "~7.12"]
]}
